Experiment: Pharmacokinetics in mice (plasma concentration by HPLC)
Type: in vivo
Details: mouse, plasma, sc, 20 mg/kg, sc, 20 mg/kg, saline solution, (0-180), read-out: AUC(0-t) (converted)

compound	readoutUnits	AUC(0-t)
CCc1cc(Nc2cc(=O)n(CCCCN3CCOCC3)c(=O)[nH]2)ccc1C.Cl [Compound 59]	ng·h/mL	6770

###

Each item that follows carries a reported MIC.
Tested on: E. fecium
Test: Inhibition of bacterial growth on agar plates (MIC)
Assay type: cell-based
Details: 37° C., 24 hours
assayReadout: MIC (µg/mL)

compound	assayReadout	testResult
CCc1cc(Nc2cc(=O)n(CCOCCOC)c(=O)[nH]2)ccc1C	MIC	5
CCc1cc(Nc2cc(=O)n(CC(=O)N(CC)CC)c(=O)[nH]2)ccc1C	MIC	20
CCc1cc(Nc2cc(=O)n(CCN3CCOCC3)c(=O)[nH]2)ccc1C	MIC	2.5
CCOC(=O)CCCn1c(=O)cc(Nc2ccc(C)c(CC)c2)[nH]c1=O	MIC	2.5
CCc1cc(Nc2cc(=O)n(CCCCO)c(=O)[nH]2)ccc1C [HB-EMAU, reference compound]	MIC	5
CCc1cc(Nc2cc(=O)n(CCCCN3CCC(O)(c4ccc(Cl)c(C(F)(F)F)c4)CC3)c(=O)[nH]2)ccc1C	MIC	2.5
CCc1cc(Nc2cc(=O)n(CCCCCCCCO)c(=O)[nH]2)ccc1C	MIC	2.5
CCc1cc(Nc2cc(=O)n(CCCCCNC(=O)c3cc4ccccc4s3)c(=O)[nH]2)ccc1C	MIC	80
